Provide the recorded EC50 for the entries that follow.
# Test system: Drosophila SCA1 polyglutamine model, toxicity suppression
# measurement notes: Reduction of SCA1 polyglutamine toxicity, EC50 from dose response in whole drosophila (AID 1597)
Results filed as inconclusive are left out.

Solved cases (3 shown):
CCCCCCCCCCCCCCCC(=O)OC/C=C(C)/C=C/C=C(C)/C=C/C1=C(C)CCCC1(C)C: 275 nM
CC(=O)OCC(=O)[C@H]1CCC2C3CCC4=CC(=O)CC[C@]4(C)C3CC[C@@]21C (some centres undefined): 3000 nM
NC(Cc1cc(I)c(Oc2ccc(O)c(I)c2)c(I)c1)C(=O)O (centres undefined): 5000 nM

Give me EC50 for each of these molecules, listed below.
1. C[N+](C)(C)CCOC(N)=O
2. OCC(S)CS (centres undefined)
3. C[C@@H]1O[C@@H](O[C@H]2[C@H](Oc3cc(O)c4c(c3)O[C@H](c3ccc(O)cc3)CC4=O)O[C@H](CO)[C@@H](O)[C@@H]2O)[C@H](O)[C@H](O)[C@H]1O

["3000 nM", "300 nM", "5000 nM"]

I need EC50 for every entry listed below, if you could help.
1. C[C@@H]1CC2C3CCC4=CC(=O)C=C[C@]4(C)[C@@]3(F)[C@@H](O)C[C@]2(C)[C@@]1(O)C(=O)COP(=O)(O)O (some centres undefined)
2. CC(N)CCCC(C)(C)O (centres undefined)
3. C=C1C2CC[C@H]3[C@]4(C)C[C@H](OC5OC(CO)C(OS(=O)(=O)O)C(OS(=O)(=O)O)C5OC(=O)CC(C)C)C[C@@H](C(=O)O)[C@H]4CC[C@]3(C2)[C@H]1O (some centres undefined)

1: 750 nM; 2: 50 nM; 3: 225 nM

* * *

So I've got a bunch of molecules here, and I need their EC50 values.
# Test system: Drosophila SCA1 polyglutamine model, toxicity suppression
# measurement notes: Reduction of SCA1 polyglutamine toxicity, EC50 from dose response in whole drosophila (AID 1597)
Results filed as inconclusive are left out.

Use the examples below as a reference point.
Cc1cc(C(C)(C)C)cc(C)c1CC1=NCCN1: 0.25 µM
NS(=O)(=O)c1cc(C2(O)NC(=O)c3ccccc32)ccc1Cl (stereo not given): 5 µM
C[N+](C)(C)CC(=O)[O-]: 3 µM
N#C/C(=C\c1ccc(O)cc1)C(=O)O: 0.05 µM

Look at this molecule and give its reported EC50. CN1CCOC(c2ccccc2)c2ccccc2C1 (stereo not given) 0.05 µM
